Entry source: PubChem BioAssay AID1345085

# Tested on: Es-2
# measurement protocol: Confirmatory qHTS for gynecologic anti-cancer compounds from libraries of approved drugs and bioactive compounds; also: nearly all actives have a fitted effect of over 55% in size
# details: gynecologic cancer cell panel viability, ATPlite luminescence, 48 h; series mostly up to 57.6 µM
Inconclusive results are not listed. Calls of active or inactive are those of the source. Calls follow the shape of the dose curve; as a rule, active = well fitted cell-killing curve with a large enough effect; inconclusive = small, poorly fitted or top-dose-only effect, or effect the other way; inactive = no such curve, though single readings can be large or run the other way.
Hi there, use one of these labels in your reply, thanks! True for active, False for inactive

CC1=C(/C=C/C(C)=C/C=C/C(C)=C/C(=O)Nc2ccc(O)cc2)C(C)(C)CCC1    True
COc1cc(N2CCC(N)CC2)ccc1Nc1ncc(Cl)c(-c2c[nH]c3ccccc23)n1    False
CC[C@@]1(O)C(=O)OCc2c1cc1n(c2=O)Cc2cc3cc(O)ccc3nc2-1    True

Q: Which outcome did this test record for the molecule `CC(C)C[C@H](NC(=O)[C@H](CCc1ccccc1)NC(=O)CN1CCOCC1)C(=O)N[C@@H](Cc1ccccc1)C(=O)N[C@@H](CC(C)C)C(=O)[C@@]1(C)CO1` ?
A: True

Q: I would be grateful if you could indicate the recorded call for `COc1cccc2c1C(=O)c1c(O)c3c(c(O)c1C2=O)C[C@@](O)(C(=O)CO)C[C@@H]3O[C@H]1C[C@H](N)[C@H](O)[C@H](C)O1` .
A: True

---

# Tested on: Es-2
# measurement protocol: Confirmatory qHTS for gynecologic anti-cancer compounds from libraries of approved drugs and bioactive compounds; also: nearly all actives have a fitted effect of over 55% in size
# details: gynecologic cancer cell panel viability, ATPlite luminescence, 48 h; series mostly up to 57.6 µM
Results filed as inconclusive are left out. Calls of active or inactive are those of the source. The call rests on the fitted dose curve; in most records, active means well fitted cell-killing curve with a large enough effect; inconclusive means small, poorly fitted or top-dose-only effect, or effect the other way; inactive means no such curve, though single readings can be large or run the other way.
Valid outcomes are listed here; reply with one: active, inactive

O=c1cc(CN2CCOCC2)occ1OCCCCCSc1ccnc2cc(C(F)(F)F)ccc12    inactive

Q: Entry `CC(C)Oc1ccc2c(=O)c(-c3ccccc3)coc2c1` : call = ?
A: active

Q: Hi, do you know how `CC(C)C[C@H](NC(=O)[C@H](Cc1ccccc1)NC(=O)c1cnccn1)B(O)O` came out in this test?
A: active

Q: Give the logged outcome of this assay for the following compound: CN(C)CCC(CSc1ccccc1)Nc1ccc(S(=O)(=O)NC(=O)c2ccc(N3CCN(Cc4ccccc4-c4ccc(Cl)cc4)CC3)cc2)cc1[N+](=O)[O-] (centres undefined)
A: active

Q: In this assay, the call recorded for COC(C(=O)N1Cc2[nH]nc(NC(=O)c3ccc(N4CCN(C)CC4)cc3)c2C1)c1ccccc1 (centres undefined) was what?
A: inactive

Q: Which result was noted for this compound in the test: `CCCCN(CCCC)C(=O)CN1C[C@H](c2ccc3c(c2)OCO3)[C@@H](C(=O)O)[C@@H]1c1ccc(OC)cc1`
A: inactive

---

# System: Es-2
# measurement protocol: Confirmatory qHTS for gynecologic anti-cancer compounds from libraries of approved drugs and bioactive compounds; also: nearly all actives have a fitted effect of over 55% in size
# details: gynecologic cancer cell panel viability, ATPlite luminescence, 48 h; series mostly up to 57.6 µM
Records with an inconclusive call do not appear. The source made the active and inactive calls. The call rests on the fitted dose curve; in most records, active means well fitted cell-killing curve with a large enough effect; inconclusive means small, poorly fitted or top-dose-only effect, or effect the other way; inactive means no such curve, though single readings can be large or run the other way.
The reply should name one outcome from Yes for active, No for inactive

Cc1[nH]c2ccccc2c1CCNCc1ccc(/C=C/C(=O)NO)cc1    Yes
CNc1nc(Nc2ccc(C(=O)N3CCOCC3)cc2OC)ncc1Cl    No
Cc1nc(N)sc1-c1ccnc(Nc2ccc(N3CCOCC3)cc2)n1    Yes
Cc1ccccc1C(OCCN(C)C)c1ccccc1 (configuration not stated)    No

Q: For this compound, state the assay outcome: `Cc1cc(Nc2nc(N[C@@H](C)c3ncc(F)cn3)ncc2Cl)n[nH]1`
A: No

Q: What call does the record list for `CCS(=O)(=O)N1CCN(c2ccc(Nc3ncc(C(N)=O)c(NC4CC4)n3)cc2)CC1` ?
A: No

Q: Hi, do you know how `CN(C)CC/C=C1\c2ccccc2COc2ccccc21` came out in this test?
A: No

Q: Please let me know the test result on file for `Cn1cnc2c(F)c(Nc3ccc(Br)cc3Cl)c(C(=O)NOCCO)cc21` .
A: Yes

Q: Assay result, entry `CCN(CC)CCNC(=O)c1c(C)[nH]c(/C=C2\C(=O)Nc3ccc(F)cc32)c1C` — outcome?
A: Yes

Q: Lab log entry: `N=C(N)c1ccc(OCCCCCOc2ccc(C(=N)N)cc2)cc1` — outcome as called in the assay?
A: No

Q: Answer briefly: the call reported for CN1C(=O)C(Cc2c[nH]c3ccccc23)NC1=S (configuration not stated) in this assay.
A: No

Q: Which outcome was entered for the compound `Cc1ccc(C(=O)Nc2ccc(CN3CCN(C)CC3)c(C(F)(F)F)c2)cc1C#Cc1cnc2cccnn12` in this test?
A: Yes
